assayedSystem: T1, GFP-9S library array, motif 4 ND N98P;D124V (synthetic construct, N98P;D124V)
T1 chain: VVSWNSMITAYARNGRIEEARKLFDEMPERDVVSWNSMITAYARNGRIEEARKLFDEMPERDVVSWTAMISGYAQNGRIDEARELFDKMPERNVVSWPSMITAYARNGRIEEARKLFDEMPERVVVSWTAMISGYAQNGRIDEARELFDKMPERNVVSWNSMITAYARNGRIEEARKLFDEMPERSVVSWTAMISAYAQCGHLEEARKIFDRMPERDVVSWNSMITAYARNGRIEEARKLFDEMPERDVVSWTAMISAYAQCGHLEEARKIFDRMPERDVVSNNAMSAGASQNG
methodDescription: high-throughput RNA pulldown from lysate on Ni-NTA beads; HRP: 50 mM Tris pH 8, 150 mM NaCl, 1 mM beta-mercaptoethanol, 50 ug/ml BSA, 3 ug/ml yeast RNA, 0.5% heparin; ITC and FP: Tris pH 8, 200 mM KCl, 5% glycerol; MST: 50 mM Tris pH 8, 200 mM NaCl, 1 mM DTT, BSA, heparin, 0.05% Tween 20
conditionSummary: tags: N-terminal His-eGFP; label: 5' Cy5
recordedMetric: Kd (nM)
Number in nM, nothing else.

AUUACACGUGA (ssRNA) [Cy5-rpoA]
121

Next binder, Kd to be filled in.
Asked: Recorded Kd of AUUAGACGUGA (ssRNA) [Cy5-rpoA-G] , please.
Given back: 150
